molecular target: P-gp (ABCB1) (Rattus norvegicus); assay: Substrate activity at rat P-gp assessed as efflux ratio; type: ADME
Sequence (P43245 whole entry): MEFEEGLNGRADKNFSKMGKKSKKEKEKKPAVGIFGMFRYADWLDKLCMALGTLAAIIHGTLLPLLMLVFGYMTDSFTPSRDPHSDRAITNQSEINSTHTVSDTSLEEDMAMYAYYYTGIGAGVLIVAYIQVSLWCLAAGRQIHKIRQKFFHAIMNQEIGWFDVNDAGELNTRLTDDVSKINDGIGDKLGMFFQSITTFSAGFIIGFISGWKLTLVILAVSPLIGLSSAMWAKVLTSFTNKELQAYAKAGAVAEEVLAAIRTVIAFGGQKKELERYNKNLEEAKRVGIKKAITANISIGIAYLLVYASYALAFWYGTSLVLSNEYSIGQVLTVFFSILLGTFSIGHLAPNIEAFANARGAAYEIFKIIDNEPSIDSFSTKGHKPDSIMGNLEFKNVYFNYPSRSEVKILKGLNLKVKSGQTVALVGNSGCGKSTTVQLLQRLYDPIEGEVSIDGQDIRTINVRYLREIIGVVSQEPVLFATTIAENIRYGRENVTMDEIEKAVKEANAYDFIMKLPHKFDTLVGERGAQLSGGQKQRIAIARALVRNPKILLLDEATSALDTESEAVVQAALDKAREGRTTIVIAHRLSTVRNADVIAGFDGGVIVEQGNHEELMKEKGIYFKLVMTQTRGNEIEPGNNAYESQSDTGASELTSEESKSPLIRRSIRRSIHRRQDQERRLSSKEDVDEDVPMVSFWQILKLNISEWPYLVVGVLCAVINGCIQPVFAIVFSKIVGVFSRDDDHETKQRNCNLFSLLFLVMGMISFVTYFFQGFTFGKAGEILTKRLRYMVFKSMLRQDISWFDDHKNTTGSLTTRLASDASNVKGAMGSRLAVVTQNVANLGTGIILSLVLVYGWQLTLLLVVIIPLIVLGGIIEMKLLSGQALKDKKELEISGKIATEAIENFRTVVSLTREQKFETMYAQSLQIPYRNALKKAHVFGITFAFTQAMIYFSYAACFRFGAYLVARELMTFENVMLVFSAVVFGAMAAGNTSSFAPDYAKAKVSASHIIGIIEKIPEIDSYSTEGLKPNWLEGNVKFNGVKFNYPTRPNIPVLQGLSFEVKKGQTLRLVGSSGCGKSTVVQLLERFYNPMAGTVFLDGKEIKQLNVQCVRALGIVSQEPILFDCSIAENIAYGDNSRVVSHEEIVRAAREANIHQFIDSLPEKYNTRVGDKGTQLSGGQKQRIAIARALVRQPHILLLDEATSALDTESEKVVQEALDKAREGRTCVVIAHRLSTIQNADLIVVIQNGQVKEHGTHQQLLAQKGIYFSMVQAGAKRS
measured endpoint: efflux ratio
Lab note: jot the number down without any unit.

Some solved entries appear below for comparison.
smiles input	assay result
Cn1cc(CNc2cc(OC[C@H]3C[C@@H]3c3ccccn3)nc3ccnn23)cn1	0.7
Cc1c(NCc2cnn(C)c2)cc(OC[C@H]2C[C@@H]2c2ccccn2)nc1Cl	0.6
Cc1ccc([C@H]2C[C@@H]2COc2cc(NCc3nnc(C)s3)nc(C)n2)nc1	2.6
Cn1cc(CNc2cc(OC[C@H]3C[C@@H]3c3ccccn3)nc3cccnc23)cn1	0.7

Any idea what its efflux ratio is? The compound is Cn1cc(CNc2cc(OC[C@H]3C[C@@H]3c3ccccn3)nc3ccccc23)cn1
0.5

How about Cc1c(Cl)nc(OC[C@H]2C[C@@H]2c2ccccn2)nc1NCc1cnn(C)c1 ?
2

----------
Quick note: these are pIC50 numbers for system: Voltage-gated inwardly rectifying potassium channel KCNH2 (Homo sapiens, UniProt Q12809)
Sequence (Q12809 whole entry): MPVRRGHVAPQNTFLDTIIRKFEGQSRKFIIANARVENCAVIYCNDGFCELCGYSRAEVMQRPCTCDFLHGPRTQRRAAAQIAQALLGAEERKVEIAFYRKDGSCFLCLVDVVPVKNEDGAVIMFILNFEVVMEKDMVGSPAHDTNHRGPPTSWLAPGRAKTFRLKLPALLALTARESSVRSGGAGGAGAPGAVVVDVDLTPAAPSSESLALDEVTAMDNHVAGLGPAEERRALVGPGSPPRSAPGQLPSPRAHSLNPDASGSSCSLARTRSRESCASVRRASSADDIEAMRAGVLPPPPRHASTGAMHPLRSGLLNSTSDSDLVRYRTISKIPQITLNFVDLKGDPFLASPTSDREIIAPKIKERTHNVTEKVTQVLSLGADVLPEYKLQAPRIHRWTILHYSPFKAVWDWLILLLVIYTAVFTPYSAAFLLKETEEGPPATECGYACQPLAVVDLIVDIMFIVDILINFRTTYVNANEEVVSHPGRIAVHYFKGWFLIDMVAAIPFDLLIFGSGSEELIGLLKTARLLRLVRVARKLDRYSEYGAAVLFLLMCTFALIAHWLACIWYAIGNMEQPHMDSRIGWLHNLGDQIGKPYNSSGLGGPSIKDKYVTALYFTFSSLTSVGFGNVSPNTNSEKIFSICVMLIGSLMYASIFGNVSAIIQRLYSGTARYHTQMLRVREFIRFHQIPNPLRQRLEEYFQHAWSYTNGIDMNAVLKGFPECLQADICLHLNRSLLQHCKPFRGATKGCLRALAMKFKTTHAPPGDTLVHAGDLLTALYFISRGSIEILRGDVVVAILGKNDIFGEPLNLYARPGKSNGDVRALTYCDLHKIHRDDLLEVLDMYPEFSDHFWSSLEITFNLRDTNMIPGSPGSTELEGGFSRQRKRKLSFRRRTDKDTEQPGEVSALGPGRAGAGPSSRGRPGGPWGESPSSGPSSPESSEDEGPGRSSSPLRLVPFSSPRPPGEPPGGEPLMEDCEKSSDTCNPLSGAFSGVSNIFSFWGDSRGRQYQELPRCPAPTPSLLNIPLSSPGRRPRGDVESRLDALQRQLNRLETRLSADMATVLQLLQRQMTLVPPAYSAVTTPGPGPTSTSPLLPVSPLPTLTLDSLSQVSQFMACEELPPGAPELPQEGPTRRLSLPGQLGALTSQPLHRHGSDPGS
Bear in mind: pIC50 is minus log10 of a mol/L concentration; give just that figure.

compound	pIC50
Cc1ccc([C@H]2C[C@@H]2COc2cc(NCc3nnc(C)s3)nc(C)n2)nc1 [MK-8189]	4.48

Please examine the following record next.
Any idea what its pIC50 is? The compound is Cc1nnc(CNc2cc(OC[C@H]3C[C@@H]3c3ccccn3)nc3cccnc23)s1
4.60

----------
target: Voltage-dependent L-type calcium channel subunit alpha-1C (Homo sapiens); test: Inhibition of Cav1.2 (unknown origin)
measured endpoint: IC50

Any idea what its IC50 is? The compound is Cc1ccc([C@H]2C[C@@H]2COc2cc(NCc3nnc(C)s3)nc(C)n2)nc1 [MK-8189]
> 30 µM

----------
target: Sodium channel protein type 5 subunit alpha (Homo sapiens, UniProt Q14524); experiment: Inhibition of Nav1.5 (unknown origin)
measured endpoint: IC50

Any idea what its IC50 is? The molecule is Cc1ccc([C@H]2C[C@@H]2COc2cc(NCc3nnc(C)s3)nc(C)n2)nc1
> 30 µM

----------
assay: Plasma concentration in MK-801-induced psychosis rat model at 0.25 mg/kg, po administered 1 hr prior to MK-801 administration and measured after 90 mins; assay type: ADME, organism-based; conditions: time 150 min
measured endpoint: concentration at 2.5 h (nM)
I only need the number, in nM, no unit after it.

Any idea what its concentration at 2.5 h is? The molecule is Cc1ccc([C@H]2C[C@@H]2COc2cc(NCc3nnc(C)s3)nc(C)n2)nc1
17

----------
target: UniProt Q9Y233; test: Inhibition of human PDE10A2 transfected in human AD293 cells cytosolic fraction using cAMP as substrate by fluorescence polarization assay
Sequence (Q9Y233 whole entry): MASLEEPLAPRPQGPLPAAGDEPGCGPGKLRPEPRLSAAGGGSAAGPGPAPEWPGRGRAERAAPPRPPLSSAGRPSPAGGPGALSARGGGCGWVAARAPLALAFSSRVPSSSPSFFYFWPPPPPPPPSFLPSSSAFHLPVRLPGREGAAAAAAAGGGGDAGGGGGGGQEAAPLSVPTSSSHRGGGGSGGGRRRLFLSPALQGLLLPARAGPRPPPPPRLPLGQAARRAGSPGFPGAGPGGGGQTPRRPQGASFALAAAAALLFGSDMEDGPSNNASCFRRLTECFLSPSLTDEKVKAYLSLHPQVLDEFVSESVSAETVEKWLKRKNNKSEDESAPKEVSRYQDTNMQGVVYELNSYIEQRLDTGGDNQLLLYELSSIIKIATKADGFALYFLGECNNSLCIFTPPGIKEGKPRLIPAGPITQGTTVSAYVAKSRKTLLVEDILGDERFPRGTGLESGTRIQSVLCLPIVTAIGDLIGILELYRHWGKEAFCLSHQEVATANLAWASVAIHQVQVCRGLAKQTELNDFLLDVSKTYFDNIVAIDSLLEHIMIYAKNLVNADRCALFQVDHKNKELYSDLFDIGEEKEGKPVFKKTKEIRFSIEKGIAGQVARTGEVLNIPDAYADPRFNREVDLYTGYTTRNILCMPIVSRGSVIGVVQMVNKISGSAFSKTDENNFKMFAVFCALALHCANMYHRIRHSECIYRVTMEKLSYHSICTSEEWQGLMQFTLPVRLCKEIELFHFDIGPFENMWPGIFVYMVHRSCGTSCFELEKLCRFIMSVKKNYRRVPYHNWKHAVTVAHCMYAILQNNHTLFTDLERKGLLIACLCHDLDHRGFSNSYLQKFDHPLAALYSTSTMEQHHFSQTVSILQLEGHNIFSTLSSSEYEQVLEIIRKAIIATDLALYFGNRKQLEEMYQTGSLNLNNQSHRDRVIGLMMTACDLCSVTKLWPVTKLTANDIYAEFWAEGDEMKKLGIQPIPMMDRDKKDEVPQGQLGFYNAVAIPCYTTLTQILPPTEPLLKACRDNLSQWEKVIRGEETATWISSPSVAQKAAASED
measured endpoint: Ki (pM)
I only need the number, in pM, no unit after it.

Some solved entries appear below for comparison.
smiles input	units symbol	assay result
Cn1cc(CNc2cc(OC[C@H]3C[C@@H]3c3ccccn3)nc3cnccc23)cn1	pM	130
Cn1cc(CNc2cc(OC[C@H]3C[C@@H]3c3ccccn3)nc3ccncc23)cn1	pM	120

Please examine the following record next.
Any idea what its Ki is? The compound is Cc1nnc(CNc2cc(OC[C@H]3C[C@@H]3c3ccccn3)nc3cccnc23)s1
110

----------
assay: Selectivity ratio of Ki for N-terminal GST-tagged human recombinant PDE5A1 (1 to 875 residues) expressed in baculovirus-infected Sf9 cells to Ki for human PDE10A2 transfected in human AD293 cells cytosolic fraction
measured endpoint: Ratio Ki

smiles input	assay result
Cc1c(NCc2cnn(C)c2)cc(OC[C@H]2C[C@@H]2c2ccccn2)nc1Cl	> 30000

Any idea what its Ratio Ki is? The compound is Cc1nc(C)c(CNc2nc(OCCCc3ccc4ccccc4n3)nc(Cl)c2C)s1
> 5000

How about Cc1nc(NCc2nnc(C)s2)cc(OC[C@H]2C[C@@H]2c2ccccn2)n1 ?
> 45000

How about Cc1nc(NCc2cnn(C)c2)cc(OC[C@H]2C[C@@H]2c2ccccn2)n1 ?
> 67000

How about COc1ccc([C@H]2C[C@@H]2COc2cc(NCc3nnc(C)s3)nc(C)n2)nc1 ?
> 225000

How about Cn1cc(CNc2cc(OC[C@H]3C[C@@H]3c3ccccn3)nc3ccnn23)cn1 ?
> 5800
